Tested on: Mycobacterium tuberculosis Erdman (autoluminescent)
TEST DETAILS: Einf, fitted maximum growth inhibition of three-drug combination (fraction); higher = stronger maximal inhibition
TEST SETTINGS: in vitro model: cholesterol 0.05 mM; time point: terminal (~4-5 doublings, model-specific)
MEASURED ENDPOINT: Einf

- COMPOUND: "CC(C)/N=c1\\cc2n(-c3ccc(Cl)cc3)c3ccccc3nc-2cc1Nc1ccc(Cl)cc1 [clofazimine] + O=[N+]([O-])c1cn2c(n1)OC[C@@H](OCc1ccc(OC(F)(F)F)cc1)C2 [pretomanid] + NC(=O)c1cnccn1 [pyrazinamide]"
  VALUE REPORTED: 0.917
- COMPOUND: "CC(C)/N=c1\\cc2n(-c3ccc(Cl)cc3)c3ccccc3nc-2cc1Nc1ccc(Cl)cc1 [clofazimine] + CC(=O)NC[C@H]1CN(c2ccc(N3CCOCC3)c(F)c2)C(=O)O1 [linezolid] + NC(=O)c1cnccn1 [pyrazinamide]"
  VALUE REPORTED: 0.927
- COMPOUND: "CC[C@@H](CO)NCCN[C@@H](CC)CO [ethambutol] + COc1c(N2C[C@@H]3CCCN[C@@H]3C2)c(F)cc2c(=O)c(C(=O)O)cn(C3CC3)c12 [moxifloxacin] + NC(=O)c1cnccn1 [pyrazinamide]"
  VALUE REPORTED: 0.8
- COMPOUND: "CC(C)/N=c1\\cc2n(-c3ccc(Cl)cc3)c3ccccc3nc-2cc1Nc1ccc(Cl)cc1 [clofazimine] + COc1c(N2C[C@@H]3CCCN[C@@H]3C2)c(F)cc2c(=O)c(C(=O)O)cn(C3CC3)c12 [moxifloxacin] + CO[C@H]1/C=C/O[C@@]2(C)Oc3c(C)c(O)c4c(O)c(c(/C=N/N5CCN(C6CCCC6)CC5)c(O)c4c3C2=O)NC(=O)/C(C)=C\\C=C\\[C@H](C)[C@H](O)[C@@H](C)[C@@H](O)[C@@H](C)[C@H](OC(C)=O)[C@@H]1C [rifapentine]"
  VALUE REPORTED: 0.826

Reported Einf ( COc1nc2ccc(Br)cc2cc1[C@@H](c1ccccc1)[C@@](O)(CCN(C)C)c1cccc2ccccc12 [bedaquiline] + CC(C)/N=c1\cc2n(-c3ccc(Cl)cc3)c3ccccc3nc-2cc1Nc1ccc(Cl)cc1 [clofazimine] + CC[C@@H](CO)NCCN[C@@H](CC)CO [ethambutol] ) = 0.937
